Molecular target: 5-HT1 -like receptor (Oryctolagus cuniculus)
Construct: contraction of the saphenous vein of New Zealand White rabbits
Sequence (P49144 whole entry): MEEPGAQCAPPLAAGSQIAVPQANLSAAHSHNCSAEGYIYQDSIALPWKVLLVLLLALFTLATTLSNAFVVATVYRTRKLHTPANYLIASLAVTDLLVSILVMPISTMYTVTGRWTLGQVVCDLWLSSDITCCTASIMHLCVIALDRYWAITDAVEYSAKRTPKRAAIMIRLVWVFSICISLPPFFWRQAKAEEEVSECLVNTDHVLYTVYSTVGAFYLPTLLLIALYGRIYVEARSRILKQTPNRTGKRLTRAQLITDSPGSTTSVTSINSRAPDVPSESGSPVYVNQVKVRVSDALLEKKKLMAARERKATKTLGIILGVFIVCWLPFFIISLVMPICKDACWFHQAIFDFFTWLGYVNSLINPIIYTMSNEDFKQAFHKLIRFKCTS
Test: Agonist activity at 5-HT1-like receptor: contraction of the saphenous vein of New Zealand White rabbits
Conditions: rabbit saphenous vein; from plots of percentage 5-HT (1 μM) response against concentration of agonist; read-out: EC50 (agonist potency, contraction of saphenous vein)
pEC50: −log10 of the molar value. Counter-ions that a name gives are not always drawn.
Some compounds, each annotated with its measured pEC50.
attribute.measured: pEC50

compound	reading
c1cc2[nH]cc(CCCN3CCNCC3)c2cc1-n1cnnc1	> 5.30
CN1CCN(CCCc2c[nH]c3ccc(-n4cnnc4)cc23)CC1 [Example 5, Oxalate Monohydrate]	> 5.30
